- System: HCMV recombinant mutant virus (RV145)
- assay.overview: microbe, parasite or virus in culture
- Assay type: cell-based, human cytomegalovirus
- conditions: Human betaherpesvirus 5, read-out: IC50 ug/ml HCMV, HCMV
Listed below: IC50 values for each entry.

[
  {
    "molecule": "O=C(Nc1ccc(NC(=S)Nc2cc(Cl)ccc2Cl)cc1)c1ccccc1F [Example 931]",
    "IC50": "> 10 µg/mL"
  },
  {
    "molecule": "COc1ccccc1C(=O)Nc1ccc(NC(=S)NC(C)c2cc3ccccc3o2)cc1 (stereo not shown) [Example 1018]",
    "IC50": "> 10 µg/mL"
  },
  {
    "molecule": "O=C(Nc1ccc(NC(=S)NCc2cccc(I)c2)cc1)c1ccccc1F [Example 661]",
    "IC50": "> 0.5 µg/mL"
  },
  {
    "molecule": "CN1CCC(N(C)c2ccc(NC(=S)Nc3ccc(NC(=O)c4ccccc4F)cc3)cc2Cl)CC1 [Example 855]",
    "IC50": "0.7 µg/mL"
  }
]
